Cited source for all entries: PubChem BioAssay (EPA / NIEHS)

# Read-out: cysteine-aspartic acid protease (CASP8), CASP8 (gene 841)
# PROCEDURE DETAILS: LTEA_HepaRG_CASP8: Life Technologies and Expression Analysis (LTEA) Assay for cysteine-aspartic acid protease (CASP8) using HepaRG (AID 2283480)
# SETUP CONDITIONS: mRNA level, 48 h; actives raise or lower the signal
The source made the active and inactive calls. Rule for the calls: active = hit-call score of the fitted dose curve at least 0.9, where 1 is the maximum; inactive = score below 0.9.
ENDPOINT LABEL: outcome

Example results:
INSERT INTO measurements (molecule, endpoint_value) VALUES
  ('CC(C)(O)c1cnn2c(-c3ccc(F)c(-c4c(F)cccc4C#N)c3)cnc2n1', 'inactive'),
  ('OCCCl', 'inactive'),
  ('Cc1ccc(N)c(N)c1', 'inactive'),
  ('CCC(C)c1ccc(O)cc1 (stereo not drawn)', 'inactive'),
  ('Nc1ccc(Oc2ccc(N)cc2)cc1', 'inactive');

Query Cc1ccc(N=C=O)cc1N=C=O yields outcome of inactive

Query CC(C)(C)C(O)(CCc1ccc(Cl)cc1)Cn1cncn1 (stereo not drawn) yields outcome of inactive

Query COP(=S)(OC)SCN1C(=O)c2ccccc2C1=O yields outcome of inactive

---

# Read-out: Interleukin-8 (IL8), CXCL8 (gene 3576)
# PROCEDURE DETAILS: BSK_hDFCGF_IL8: BioMAP Diversity Plus: hDFCGF Assay for Interleukin-8 (IL8) Biomarker Activity (AID 2283058)
# SETUP CONDITIONS: primary human foreskin fibroblasts; actives raise or lower the signal
Calls of active or inactive are those of the source. The calls were made as follows: active = hit-call score of the fitted dose curve at least 0.9, where 1 is the maximum; inactive = score below 0.9.
Choose one outcome from this list and give only that: y = active, n = inactive

Each compound tested received a call. Report the one for CCCCOC(=O)c1ccccc1C(=O)OCc1ccccc1 .
n

Each compound tested received a call. Report the one for C[N+](C)(C)CC1CO1 (centres undefined) .
n

Each compound tested received a call. Report the one for O=C(N[C@H](c1ccccc1)[C@@H]1CN2CCC1CC2)c1c(Cl)ccc(C(F)(F)F)c1Cl .
n

Each compound tested received a call. Report the one for CC(O)CCO (centres undefined) .
n

Each compound tested received a call. Report the one for COP(=S)(OC)SCN1C(=O)c2ccccc2C1=O .
n

Each compound tested received a call. Report the one for O=P(OCCCl)(OCCCl)OCCCl .
n

Each compound tested received a call. Report the one for CCCCCCCCOC(=O)c1ccc(C(=O)OCCCCCCCC)c(C(=O)OCCCCCCCC)c1 .
n

Each compound tested received a call. Report the one for Nc1ccc(N=Nc2ccccc2)cc1 .
n

Each compound tested received a call. Report the one for CS(=O)(=O)NC(=O)c1cc(Oc2ccc(C(F)(F)F)cc2Cl)ccc1[N+](=O)[O-] .
n

Each compound tested received a call. Report the one for CN(C)c1ccc(C(=O)c2ccc(N(C)C)cc2)cc1 .
n

Each compound tested received a call. Report the one for OCCOCCO .
n

Each compound tested received a call. Report the one for CCC12COCN1COC2 .
n

Each compound tested received a call. Report the one for c1ccc2c(c1)-c1cccc3cccc-2c13 .
n

Each compound tested received a call. Report the one for COC(=O)Nc1nc2ccccc2[nH]1 .
n

Each compound tested received a call. Report the one for Cn1cc(-c2ccccc2)c(=O)c(-c2cccc(C(F)(F)F)c2)c1 .
n

Each compound tested received a call. Report the one for CCC(C)c1ccc(O)cc1 (centres undefined) .
n

Each compound tested received a call. Report the one for CC(C)N(Cc1ccccc1)C(=O)C(C)(C)C .
n

Each compound tested received a call. Report the one for ClC1=C(Cl)[C@]2(Cl)[C@H]3[C@H]([C@@H]4C=C[C@H]3C4)[C@@]1(Cl)C2(Cl)Cl .
y

Each compound tested received a call. Report the one for CCCCCOC(=O)c1ccccc1C(=O)OCCCCC .
n

Each compound tested received a call. Report the one for C[C@]12C=CC3=C4CCC(=O)C=C4CC[C@H]3[C@@H]1CC[C@@H]2O .
n

Each compound tested received a call. Report the one for O=C1CCCO1 .
n

Each compound tested received a call. Report the one for Cc1ccc(N=C=O)cc1N=C=O .
n

Each compound tested received a call. Report the one for CC(C)COC(=O)c1ccccc1C(=O)OCC(C)C .
n

Each compound tested received a call. Report the one for N#CC(Br)(Br)C(N)=O .
n

Each compound tested received a call. Report the one for Nc1ccc(Oc2ccc(N)cc2)cc1 .
n

Each compound tested received a call. Report the one for CN(C)c1ccccc1 .
n

Each compound tested received a call. Report the one for Clc1ccccc1Cl .
n

Each compound tested received a call. Report the one for Cc1ccc(N)cc1 .
n

Each compound tested received a call. Report the one for Cc1ccc(N)c(N)c1 .
n
